assay: counter-screen: blocks GFP chromophore formation, dose response, counter-screen, biochemical, fluorescence, homogeneous (AID 434968); settings: cell-free GFP chromophore formation
The whole screen tested about 2,100 compounds, of which about 1,800 (86%) were called active. The rule behind the calls is not given here. The set was probably picked from earlier hits. Only a sample is shown.
Please state which outcome applies, choosing from active, inactive

| compound | assigned label |
| --- | --- |
| O=[N+]([O-])c1c(NCCO)cc(Sc2nc3ccccc3s2)c2nonc12 | active |
| Cc1cccc(CS(=O)(=O)c2ncc(Cl)c(C(=O)Nc3ccc(F)cc3)n2)c1 | active |
| CCCCCCCCc1c(O)nc(-n2[nH]c(C)c(CCO)c2=O)[nH]c1=O | inactive |
| Cc1oc2cc([N+](=O)[O-])c(O)c([N+](=O)[O-])c2c1C(=O)c1ccc(Br)cc1 | active |
| Cc1cc(C)n2nc(CNS(=O)(=O)c3c(F)c(F)c(F)c(F)c3F)nc2n1 | active |
| O=S(=O)(O)Oc1c[nH]c2ccccc12 | active |

Q: Entry Cc1cc(C(=O)CCl)c(C)n1CC1COc2ccccc2O1 (configuration not stated) : call = ?
Result: active

Q: Entry to check: CCOC(=O)c1c(C)[nH]c2c1-c1ccccc1C(=O)C2=O
Result: active

Q: Entry to check: Cc1nn(Cc2ccccc2)c2c1C(c1ccccc1)C(C#N)=C(N)O2 (configuration not stated)
Result: active

Q: Entry to check: CCCc1[nH]nc2c1C(c1ccc(OC(=O)c3ccco3)cc1)C(C#N)=C(N)O2 (configuration not stated)
Result: active

Q: Entry to check: O=C(CCCN1C(=O)/C(=C/c2ccccc2)SC1=S)Nc1ccc(O)cc1
Result: inactive
